molecular target: GPR6 (Homo sapiens); construct: expressed in transfected cells; host or cells: CHO cells; assay: GPR6 antagonist functional cAMP assay (LANCE Ultra cAMP TR-FRET, CHO cells stably expressing GPR6); format: cell-based; details: CHO cells stably expressing GPR6, cAMP assay (Example 24)
IC50 values for the compounds below.

Use these answered entries as a reference point.
[[record]]
compound = "Cn1cc(-c2nc3cnc(O)cc3nc2N2CCC(Oc3ccc(F)cc3F)CC2)cn1"
experimental_endpoint = "IC50"
recorded_measurement = "1 to 30 µM"

[[record]]
compound = "CN1CCc2nc(N3CCC(Oc4ccc(F)cc4F)CC3)c(-c3cn[nH]c3)nc2C1"
experimental_endpoint = "IC50"
recorded_measurement = "1 to 30 µM"

[[record]]
compound = "CC(=O)N1CCc2nc(N3CCC(Oc4cc(Cl)c(F)cc4F)CC3)c(-c3cnn(C)c3)nc2C1"
experimental_endpoint = "IC50"
recorded_measurement = "0.1 to 1 µM"

[[record]]
compound = "Cn1cc(-c2nc3cnc(C(C)(O)C(C)(C)O)cc3nc2N2CCC(Oc3ccc(F)cc3F)CC2)cn1 (stereo not shown)"
experimental_endpoint = "IC50"
recorded_measurement = "0.1 to 1 µM"

[[record]]
compound = "CC(=O)N1CCc2nc(N3CCC(Oc4ccc(F)cc4F)CC3)c(-c3cnn(CCN(C)C)c3)nc2C1"
experimental_endpoint = "IC50"
recorded_measurement = "1 to 30 µM"

[[record]]
compound = "COCCN1CCc2nc(N3CCC(Oc4ccc(F)cc4F)CC3)c(-c3cn[nH]c3)nc2C1"
experimental_endpoint = "IC50"
recorded_measurement = "0.1 to 1 µM"


Ask | For GPR6 (Homo sapiens), give the measured IC50 of the entry "CC(=O)N1CCc2nc(N3CCC(Oc4ccc(F)cc4F)CC3)c(-c3cnn(C(C)(C)C#N)c3)nc2C1"
Reply | 1 to 30 µM

Ask | For GPR6 (Homo sapiens), give the measured IC50 of the entry O=C(C1CCCN1)N1CCc2nc(N3CCC(Oc4ccc(F)cc4F)CC3)c(-c3cn[nH]c3)nc2C1 (stereo not shown)
Reply | 0.1 to 1 µM

Ask | For GPR6 (Homo sapiens), give the measured IC50 of the entry "COc1ccc(OC2CCN(c3nc4c(nc3-c3cnn(C)c3)CN(C(C)=O)CC4)CC2)cc1"
Reply | 1 to 30 µM

Ask | For GPR6 (Homo sapiens), give the measured IC50 of the entry COc1cncc(-c2nc3cnc(C(O)C(C)(C)O)cc3nc2N2CCN(Cc3ccc(F)cc3F)CC2)n1 (single isomer, unassigned)
Reply | 1 to 30 µM

---

biological target: GPR6 (Homo sapiens, UniProt P46095); construct: expressed in transfected cells; host or cells: CHO cells; experiment: GPR6 antagonist functional cAMP assay (LANCE Ultra cAMP TR-FRET, CHO cells stably expressing GPR6); format: cell-based; conditions: CHO cells stably expressing GPR6, cAMP assay (Example 24)
Sequence (P46095 whole entry): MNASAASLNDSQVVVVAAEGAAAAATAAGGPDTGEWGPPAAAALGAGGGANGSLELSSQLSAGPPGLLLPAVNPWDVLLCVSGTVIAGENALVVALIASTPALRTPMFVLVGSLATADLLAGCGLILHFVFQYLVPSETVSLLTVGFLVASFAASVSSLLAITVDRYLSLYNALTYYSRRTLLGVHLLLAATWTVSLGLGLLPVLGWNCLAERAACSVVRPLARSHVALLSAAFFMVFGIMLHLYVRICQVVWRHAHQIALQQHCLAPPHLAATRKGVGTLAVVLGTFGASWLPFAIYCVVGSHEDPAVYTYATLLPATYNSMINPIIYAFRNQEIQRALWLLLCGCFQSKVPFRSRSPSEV
pIC50: −log10 of the molar value.
pIC50 values for the compounds below.

Use these answered entries as a reference point.
[[record]]
compound = "Cn1cc(-c2nc3cnc(N)cc3nc2N2CCN(Cc3ccc(F)cc3F)CC2)cn1"
recorded_measurement = "> 7.00"

[[record]]
compound = "COC(=O)N1CCc2nc(N3CCC(Oc4ccc(F)cc4F)CC3)c(-c3cn[nH]c3)nc2C1"
recorded_measurement = "> 7.00"


Ask | For GPR6 (Homo sapiens, UniProt P46095), give the measured pIC50 of the entry COC[C@H]1CN(Cc2ccc(F)cc2F)CCN1c1nc2c(nc1-c1cnn(C)c1)CN(C(C)=O)CC2 (single isomer, unassigned)
Reply | 4.52 to 6.00

Ask | For GPR6 (Homo sapiens, UniProt P46095), give the measured pIC50 of the entry C=CC(=O)N1CCc2nc(N3CCC(Oc4ccc(F)cc4F)CC3)c(-c3cnn(C4CCCCO4)c3)nc2C1 (stereo not shown)
Reply | 6.00 to 7.00

Ask | For GPR6 (Homo sapiens, UniProt P46095), give the measured pIC50 of the entry "Cn1cc(-c2nc3cnccc3nc2N2CCN(Cc3ccc(F)cc3F)CC2=O)cn1"
Reply | ≤ 4.52

Ask | For GPR6 (Homo sapiens, UniProt P46095), give the measured pIC50 of the entry "CC(=O)N1CCc2nc(N3CCC(Oc4ccc(F)cc4F)CC3)c(-c3cnc4n3CCN(C)C4)nc2C1"
Reply | 4.52 to 6.00

Ask | For GPR6 (Homo sapiens, UniProt P46095), give the measured pIC50 of the entry CC(=O)N1Cc2nc(-c3cnn(C)c3)c(N3CCC(Oc4ccc(F)cc4F)CC3)nc2CC1C (single isomer, unassigned) [Compound 446]
Reply | 6.00 to 7.00

Ask | For GPR6 (Homo sapiens, UniProt P46095), give the measured pIC50 of the entry "CC(=O)N1CCc2nc(N3CCC(Oc4ccc(Cl)cc4Cl)CC3)c(-c3cnn(C)c3)nc2C1"
Reply | 6.00 to 7.00

Ask | For GPR6 (Homo sapiens, UniProt P46095), give the measured pIC50 of the entry "CC(=O)N1CCc2nc(N3CCC(Oc4cc(Cl)ccc4F)CC3)c(-c3cnn(C)c3)nc2C1"
Reply | 6.00 to 7.00

Ask | For GPR6 (Homo sapiens, UniProt P46095), give the measured pIC50 of the entry "CC(=O)N1CCc2nc(N3CC=CC3)c(-c3cnn(C)c3)nc2C1"
Reply | ≤ 4.52
